Target Of Assay: TRPML1 (Homo sapiens)
Construct: expressed in transfected cells
Assay: TRPML1 automated patch-clamp (QPatch 16X)
Format: cell-based
Assay Conditions: 0.3 μM compound; HEK T-REx/GcaMP6f/TRPML1 cells; current with compound/current in vehicle; extracellular pH 4.6
Entries and their Qpatch Assay TRPML1 agonism Current fold increase Mean ± SEM (n) values follow.

Below are worked cases with known answers.
compound=CN(C)S(=O)(=O)c1ccc(S(=O)(=O)Nc2ccccc2N2CCN(C(=O)OCC(F)(F)F)CC2)cc1 target_of_assay="TRPML1 (Homo sapiens)" reported_result="1.9 ± 1.6 (3)"
compound="CN(C)S(=O)(=O)c1ccc(S(=O)(=O)NC2CCCCC2N2CCC(Oc3ccccc3)CC2)cc1 (single isomer, unassigned) [Example 63]" target_of_assay="TRPML1 (Homo sapiens)" reported_result="0.042 ± 0.153 (2)"
compound=COc1ccc(S(=O)(=O)Nc2ccccc2N2CCC(C(=O)OC(C)(C)C)CC2)cc1 target_of_assay="TRPML1 (Homo sapiens)" reported_result="3.1 ± 1.2 (3)"
compound=CN(C)S(=O)(=O)c1ccc(S(=O)(=O)Nc2ccccc2N2CCCCC2)cc1 target_of_assay="TRPML1 (Homo sapiens)" reported_result="1.0 ± 0.77 (3)"
compound=CCCN(C)C(=O)N1CCN(c2ccccc2NS(=O)(=O)c2ccc(S(=O)(=O)N(C)C)cc2)CC1 target_of_assay="TRPML1 (Homo sapiens)" reported_result="2.5 ± 1.3 (3)"
compound=COC1CCN(c2ccccc2NS(=O)(=O)c2ccc(S(=O)(=O)N(C)C)cc2)CC1 target_of_assay="TRPML1 (Homo sapiens)" reported_result="0.46 ± 0.16 (3)"

Now consider the entry below.
For this compound ( "CN(C)S(=O)(=O)c1ccc(S(=O)(=O)Nc2ccccc2N2CCC(Oc3ccccc3)CC2)cc1" ), measured Qpatch Assay TRPML1 agonism Current fold increase Mean ± SEM (n) is 4.6 ± 1.8 (4)

###

Target Of Assay: TRPML1 (Homo sapiens, UniProt Q9GZU1)
Construct: expressed in transfected cells
Sequence (Q9GZU1 whole entry): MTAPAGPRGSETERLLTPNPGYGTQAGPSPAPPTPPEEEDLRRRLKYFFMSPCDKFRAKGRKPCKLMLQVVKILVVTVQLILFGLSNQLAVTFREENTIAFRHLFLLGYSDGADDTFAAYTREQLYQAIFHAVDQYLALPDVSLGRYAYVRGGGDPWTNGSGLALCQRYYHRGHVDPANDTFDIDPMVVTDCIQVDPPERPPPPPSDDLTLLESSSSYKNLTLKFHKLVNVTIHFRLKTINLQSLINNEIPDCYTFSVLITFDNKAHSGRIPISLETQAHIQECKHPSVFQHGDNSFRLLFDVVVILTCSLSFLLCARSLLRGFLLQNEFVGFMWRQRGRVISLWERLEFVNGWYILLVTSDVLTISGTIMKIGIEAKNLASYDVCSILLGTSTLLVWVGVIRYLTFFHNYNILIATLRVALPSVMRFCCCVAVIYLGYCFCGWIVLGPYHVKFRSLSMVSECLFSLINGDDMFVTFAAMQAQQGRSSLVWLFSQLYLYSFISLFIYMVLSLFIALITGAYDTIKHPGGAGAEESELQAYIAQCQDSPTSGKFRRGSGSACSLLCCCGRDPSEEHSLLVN
Assay: TRPML1 automated patch-clamp (QPatch 16X)
Assay type: cell-based
Assay Conditions: 3.0 μM compound; HEK T-REx/GcaMP6f/TRPML1 cells; current with compound/current in vehicle; extracellular pH 4.6
The following compounds are listed with their measured Qpatch Assay TRPML1 agonism Current fold increase Mean ± SEM (n) values.

Worked examples, 5 compounds total:
compound=CN(C)S(=O)(=O)c1ccc(S(=O)(=O)Nc2ccccc2C2CCN(C(=O)OC(C)(C)C)CC2)cc1 target_of_assay="TRPML1 (Homo sapiens, UniProt Q9GZU1)" reported_result="16.5 ± 9.1 (3)"
compound=CN(C)S(=O)(=O)c1ccc(S(=O)(=O)NCc2ccccc2N2CCCCC2)cc1 target_of_assay="TRPML1 (Homo sapiens, UniProt Q9GZU1)" reported_result="356 ± 69.7 (6)"
compound=CN(C)S(=O)(=O)c1ccc(S(=O)(=O)Nc2ccccc2N2CCC(C(=O)OC(C)(C)C)CC2)cc1 target_of_assay="TRPML1 (Homo sapiens, UniProt Q9GZU1)" reported_result="38.5 ± 24.8 (2)"
compound=CN(C)S(=O)(=O)c1ccc(S(=O)(=O)Nc2ccccc2N2CCC(Oc3ccccn3)CC2)cc1 target_of_assay="TRPML1 (Homo sapiens, UniProt Q9GZU1)" reported_result="435 ± 172 (4)"
compound=CN(C)S(=O)(=O)c1ccc(S(=O)(=O)Nc2ccccc2N2CCC(Oc3ccccc3)CC2)cc1 target_of_assay="TRPML1 (Homo sapiens, UniProt Q9GZU1)" reported_result="168.8 ± 96.1 (4)"

--- query ---
// recorded Qpatch Assay TRPML1 agonism Current fold increase Mean ± SEM (n) for "COC1CCN(c2ccccc2NS(=O)(=O)c2ccc(S(=O)(=O)N(C)C)cc2)CC1" : 41.4 ± 21.1

###

Target Of Assay: TRPML1 (Homo sapiens)
Assay: Cellular TRPML1 assay (FLIPR TETRA, GCaMP6f calcium read-out)
Assay Conditions: HEK T-REx/GCaMP6f/TRPML1 cells; Ca2+ response over 300 s, normalized to ML-SA1 50 μM; Ca2+ free or Optimem condition not given; read-out: Ec50 (Activity of TRPML1 agonists)
Value Kind: EC50 (µM)

Solved cases below.
molecule="Cc1ccc(S(=O)(=O)Nc2ccccc2N2CCC(C(=O)OC(C)(C)C)CC2)cc1 [Example 90]" reported_result=2.5
molecule="CN(C)S(=O)(=O)c1ccc(S(=O)(=O)Nc2ccccc2N2CCC(Oc3ccccc3)CC2)cc1 [Example 24]" reported_result=2.1
molecule="CN(C)S(=O)(=O)c1ccc(S(=O)(=O)Nc2ccccc2N2CCN(C(=O)c3ccccc3)CC2)cc1 [Example 73]" reported_result=6.4
molecule="CN(C)S(=O)(=O)c1ccc(S(=O)(=O)Nc2ccccc2N2CCc3ccccc32)cc1 [Example 8]" reported_result=64

a: CCCN(C)C(=O)C1CCN(c2ccccc2NS(=O)(=O)c2ccc(S(=O)(=O)N(C)C)cc2)CC1 [Example 14]
b: Cc1nc(S(=O)(=O)Nc2ccccc2N2CCC(Oc3ccccn3)CC2)c(C)s1 [Example 99]
c: CN(C)S(=O)(=O)c1ccc(S(=O)(=O)NC2CCCCC2N2CCCCC2)cc1 (centres unmarked) [Example 22]
d: CN(C)S(=O)(=O)c1ccc(S(=O)(=O)Nc2ccccc2N2CCC(O)CC2)cc1 [Example 38]
IN: Exam item: list the entries in increasing order of EC50. List the labels in the requested order.
OUT: b, a, d, c

I: CCCN(C)C(=O)N1CCN(c2ccccc2NS(=O)(=O)c2ccc(S(=O)(=O)N(C)C)cc2)CC1 [Example 82]
II: CN(C)S(=O)(=O)c1ccc(S(=O)(=O)Nc2ccccc2N2CCC(Oc3cnccn3)CC2)cc1 [Example 77]
III: COC1CCCN(c2ccccc2NS(=O)(=O)c2ccc(S(=O)(=O)N(C)C)cc2)CC1 (racemic) [Example 40]
IV: Cc1ncsc1C(=O)N1CCN(c2ccccc2NS(=O)(=O)c2ccc(S(=O)(=O)N(C)C)cc2)CC1 [Example 80]
V: Cc1noc(C)c1S(=O)(=O)Nc1ccccc1N1CCN(C(=O)OC(C)(C)C)CC1 [Example 64]
IN: Hey, can you sort those molecules up there by EC50, smallest first? Record the ranking as a list of labels in the requested order.
OUT: II, III, I, IV, V

###

Target Of Assay: TRPML1 (Homo sapiens)
Construct: expressed in transfected cells
Assay: TRPML1 automated patch-clamp (QPatch 16X)
Type: cell-based
Assay Conditions: 30 μM compound; HEK T-REx/GcaMP6f/TRPML1 cells; current with compound/current in vehicle; extracellular pH 4.6
// reported Qpatch Assay TRPML1 agonism Current fold increase Mean ± SEM (n) per item

The examples below pair each entry with its known result.
compound=CN(C)S(=O)(=O)c1ccc(S(=O)(=O)Nc2ccccc2N2CCN(C(=O)OCC(F)(F)F)CC2)cc1 target_of_assay="TRPML1 (Homo sapiens)" reported_result="257.4 ± 190.7 (3)"
compound="CN(C)S(=O)(=O)c1ccc(S(=O)(=O)NC2CCCCC2N2CCC(Oc3ccccc3)CC2)cc1 (racemic) [Example 57]" target_of_assay="TRPML1 (Homo sapiens)" reported_result="4.3 ± 2.2 (2)"
compound=CCCN(C)C(=O)N1CCN(c2ccccc2NS(=O)(=O)c2ccc(S(=O)(=O)N(C)C)cc2)CC1 target_of_assay="TRPML1 (Homo sapiens)" reported_result="138 ± 55.7 (3)"

Measured Qpatch Assay TRPML1 agonism Current fold increase Mean ± SEM (n) of CN(C)S(=O)(=O)c1ccc(S(=O)(=O)NC2CCCCC2N2CCC(Oc3ccccc3)CC2)cc1 (single isomer, unassigned) [Example 63] : 4.3 ± 0.9 (2)

Quick note, Qpatch Assay TRPML1 agonism Current fold increase Mean ± SEM (n) for "CC(C)CNC(=O)C1CCN(c2ccccc2NS(=O)(=O)c2ccc(S(=O)(=O)N(C)C)cc2)CC1" landed at 125 ± 75.3 (3)

The measured Qpatch Assay TRPML1 agonism Current fold increase Mean ± SEM (n) associated with "CCOC(=O)N1CCN(c2ccccc2NS(=O)(=O)c2ccc(S(=O)(=O)N(C)C)cc2)CC1" reads 656.7 ± 150.5 (3)

get_value(item= "CN(C)S(=O)(=O)c1ccc(S(=O)(=O)Nc2ccccc2N2CCC(OCc3ccccc3)CC2)cc1" , readout=Qpatch Assay TRPML1 agonism Current fold increase Mean ± SEM (n)) returns 1013.8 (1)

###

Target Of Assay: TRPML1 (Homo sapiens)
Construct: expressed in transfected cells
Assay: TRPML1 automated patch-clamp (QPatch 16X)
Assay type: cell-based
Assay Conditions: 30 μM compound; HEK T-REx/GcaMP6f/TRPML1 cells; current with compound/current in vehicle; extracellular pH 4.6
Value Kind: Qpatch Assay TRPML1 agonism Current fold increase Mean ± SEM (n)

Some compounds with known Qpatch Assay TRPML1 agonism Current fold increase Mean ± SEM (n) results, for comparison:
entry_smiles=COC1CCN(c2ccccc2NS(=O)(=O)c2ccc(S(=O)(=O)N(C)C)cc2)CC1 reported_result="390 ± 158 (3)"
entry_smiles=CN(C)S(=O)(=O)c1ccc(S(=O)(=O)NCc2ccccc2N2CCCCC2)cc1 reported_result="639 + 241 (3)"
entry_smiles=COc1ccc(S(=O)(=O)Nc2ccccc2N2CCC(C(=O)OC(C)(C)C)CC2)cc1 reported_result="58.8 ± 16.6 (3)"

Log: TRPML1 (Homo sapiens), compound "CN(C)S(=O)(=O)c1ccc(S(=O)(=O)Nc2ccccc2N2CCC(Oc3cnccn3)CC2)cc1" , Qpatch Assay TRPML1 agonism Current fold increase Mean ± SEM (n) = 168 ± 9.8 (3)

Measured Qpatch Assay TRPML1 agonism Current fold increase Mean ± SEM (n) for this entry "COc1ccc(S(=O)(=O)Nc2ccccc2N2CCN(C(=O)OC(C)(C)C)CC2)cc1" on TRPML1 (Homo sapiens): 42.7 ± 1.4 (2)

Form field Qpatch Assay TRPML1 agonism Current fold increase Mean ± SEM (n) for item "CN(C)S(=O)(=O)c1ccc(S(=O)(=O)Nc2ccccc2N2CCC(Oc3ccccc3)CC2)cc1" on TRPML1 (Homo sapiens): 687.7 (1)

Observed Qpatch Assay TRPML1 agonism Current fold increase Mean ± SEM (n) on TRPML1 (Homo sapiens), entry "Cc1ccc(S(=O)(=O)Nc2ccccc2N2CCC(C(=O)OC(C)(C)C)CC2)cc1" , equals 112 ± 38.1 (2)

Measured Qpatch Assay TRPML1 agonism Current fold increase Mean ± SEM (n) for this entry "CN(C)S(=O)(=O)c1ccc(S(=O)(=O)Nc2ccccc2N2CCC(C(=O)OC(C)(C)C)CC2)cc1" on TRPML1 (Homo sapiens): 52.7 ± 36.3 (2)
